tested on: MDA-MB-435 melanoma; assay: NCI-60 one-dose screen, 48 h (100 = growth as untreated, 0 = no growth, -100 = all killed); settings: 10 µM
The panel holds about 83,000 compounds, 20% with a hit somewhere; the sample as a whole holds those more often.
Binning scheme for growth: low (below 20%), intermediate (20% to below 90%), high (90% or more)

>>> df
                                  compound  label_value
0  CNC(=O)c1c(I)c(NC(C)=O)c(I)c(C(=O)O)c1I         high

Ask: Given CCOC(=O)CSc1nc(-c2cc(OC)ccc2OC)cc(-c2ccc(OC)cc2)c1C#N , name the class its growth places it in.
Reply: intermediate

Ask: Given OCC1OC(n2ccc3c(NO)ncnc32)C(O)C1O (stereo unspecified) , name the class its growth places it in.
Reply: low

Ask: Given COc1cc(-c2nc3ccccc3o2)cc(CN2CCCCC2)c1O , name the class its growth places it in.
Reply: low

Ask: Given COc1cc2cc(Oc3ccc(NC(=O)c4cccc(C(F)(F)F)c4)cc3)c(C)nc2cc1OC , name the class its growth places it in.
Reply: intermediate

Ask: Given CCC(c1ccc(OC)cc1)C(CC)c1ccc(O)c(CN2CCN(C)CC2)c1 (stereo unspecified) , name the class its growth places it in.
Reply: intermediate

Ask: Given CCN(CC)CCCC(Nc1c2ccc(Cl)cc2nc2ccc(OC)cc12)c1ccc(F)cc1 (stereo unspecified) , name the class its growth places it in.
Reply: low

Ask: Given CCOC(=O)c1cc(C(=O)c2ccc(Cl)cc2)n2ccc(-c3cc[n+](CC(=O)c4ccc(OC)cc4)cc3)cc12 , name the class its growth places it in.
Reply: intermediate

Ask: Given C[N+]1(CCCCC[N+]2(C)CCCC2)CCCC1 , name the class its growth places it in.
Reply: high

###

system: ACHN renal; experiment: NCI-60 one-dose screen, 48 h (100 = growth as untreated, 0 = no growth, -100 = all killed); details: 10 µM
This is part of a sample that, as a whole, favours compounds with a hit. Of some 83,000 tested, about 20% had one in any assay.
growth of 70% or higher: Y. Under 70%: N.

Recorded results for 6 compounds are shown here.
In [3]: df
Out[3]:
                                   compound  label_value
0       NS(=O)(=O)Oc1ccc(-c2ccc3sccc3c2)cc1            Y
1  COc1cc2c3c(n(C4CCN(C)CC4)c(=O)c2cc1OC)-c1cc2c(cc1C3=O)OCO2            N
2  CCN1CCN(CCC(=O)Nc2cccc(-n3cc(-c4ccncc4)c(-c4ccc(Cl)c(OC)c4)n3)c2)CC1            N
3  COc1ccc2c(c1)C(CC(=O)NN)CCC2 (stereo not given)            Y
4  CC(C1=C(CN(C(=O)Cc2cn(-c3ccccc3)nc2-c2ccc(Cl)cc2)C(C)C)Cc2ccccc21)c1ccccn1 (stereo not given)            N
5  CN(C)CCOc1ccccc1NC1=C(Cl)C(=O)C(Nc2ccccc2OCCN(C)C)=C(Cl)C1=O            N

Ask: Answer whether growth of O=c1cn[nH]c2ccc(Br)cc12 is greater than or equal to 70%.
Reply: Y

Ask: Answer whether growth of CC(C)(O)CCl is greater than or equal to 70%.
Reply: Y

Ask: Answer whether growth of N#Cc1c(N)nc(-c2cc(F)cc(C(F)(F)F)c2)nc1-c1ccccc1F is greater than or equal to 70%.
Reply: N

###

system: SK-OV-3 ovarian; assay: NCI-60 one-dose screen, 48 h; settings: 10 µM
Compounds without any hit were thinned out: in the full panel of roughly 83,000, 20% have a hit. Activity calls are given as the source filed them. The calls were made as follows: active = growth percent below 10; inactive = the rest.
Pick one: True (active), False (inactive)

Recorded results for 3 compounds are shown here.
                                   compound  label_value
0      NNC(=O)Oc1c(Cl)cc(Cl)cc1[N+](=O)[O-]        False
1             COc1ccc2nc3cc(Cl)ccc3c(N)c2c1         True
2  CC(C)(C)OC(=O)N1CCc2c(sc3ncnc(N/N=C/c4cccc5ccccc45)c23)C1        False

Ask: Would you mind telling me which call this test gave COc1cc(C(=O)n2nc(-c3cc(OC)c(OC)c(OC)c3)nc2N)cc(OC)c1OC ?
Reply: False

Ask: Would you mind telling me which call this test gave COc1ccc(Cl)cc1Nc1nc(C(F)(F)F)ccc1C(=O)N/N=C/c1cc(OC)c(OC)c(OC)c1 ?
Reply: False

Ask: Would you mind telling me which call this test gave NC1=NC(c2ccc(Cl)cc2)C2=C(N1)/C(=C/c1ccc(Cl)cc1)CCC2 (stereo not given) ?
Reply: False

###

system: T-47D breast; assay: NCI-60 one-dose screen, 48 h (100 = growth as untreated, 0 = no growth, -100 = all killed); details: 10 µM
The panel holds about 83,000 compounds, 20% with a hit somewhere; the sample as a whole holds those more often.
Binary call on growth with cut-off 40%: strictly below means 1, and equality or higher means -1.

Ask: Quick check: does COc1ccc(-c2n[nH]nc2-c2cc(OC)c3c(c2OC)OCO3)cc1 have growth under 40%?
Reply: 1

Ask: Quick check: does CCN(CC)CCN1c2nc3ccccc3cc2Sc2cc3ccccc3nc21 have growth under 40%?
Reply: -1

Ask: Quick check: does Cc1ccc(NCCN(C)CC(C)O)c2c(=O)c3ccccc3sc12 (stereo not given) have growth under 40%?
Reply: -1

Ask: Quick check: does COc1cc2c(cc1NC(=O)C(F)(F)F)-c1ccc(NC(=O)C(F)(F)F)cc1C2 have growth under 40%?
Reply: -1

Ask: Quick check: does C=C1CCC2(C#N)[C@H]3[C@H](CC[C@@H]2C)[C@@H](C)C[C@@H](CC(C)(C)NC(=O)CN2CCC2=O)[C@H]13 (stereo not given in full) have growth under 40%?
Reply: 1

Ask: Quick check: does N#CCc1csc(Cc2ccccc2)n1 have growth under 40%?
Reply: -1

Ask: Quick check: does CCn1c(SCCc2ccccc2)nnc1-c1nn(-c2ccc(Cl)cc2Cl)c(-c2ccc(Cl)cc2)c1C have growth under 40%?
Reply: -1

Ask: Quick check: does Brc1ccc2c(c1)-c1ccccc1C1=NCCN12 have growth under 40%?
Reply: 1

Ask: Quick check: does CCOc1ccccc1/C=N/N1CCCCCC1 have growth under 40%?
Reply: -1

Ask: Quick check: does CC1C(=NC(=O)c2cnccn2)C(C)C(c2ccc(Cl)cc2)NC1c1ccncc1 (stereo not given) have growth under 40%?
Reply: -1

###

System: NCI-H522 lung
Experiment: NCI-60 one-dose screen, 48 h
Details: 10 µM
Description: Growth inhibition of the NCI-H522 human Non-Small Cell Lung tumor cell line is measured as a screen for anti-cancer activity. Cells are grown in 96 well plates and exposed to the test compound for 48 hours. Compounds are tested at a single concentration, which is 10^-5 M for most compounds. The reported endpoint is percent growth (GI% or GIPRCNT), where numbers from 0 - 100% represent growth inhibition, and numbers from -100% - 0 represent cell death. […]
About 83,000 compounds went through this panel and 20% of them were active in at least one assay; those are over-represented in the sample as a whole. Active and inactive are the calls of the source. Rule for the calls: active = growth percent below 10; inactive = the rest.
Pick one: true for active, false for inactive

In [3]: df
Out[3]:
                                   compound  label_value
0  O=C(O)c1ccc(-n2cc(CNc3ccc(Oc4ccccc4)cc3)c(-c3ccccc3)n2)cc1        false

Ask: Would you mind telling me which call this test gave O=C(CCCSc1nc(-c2ccccc2)cc(-c2ccc(Cl)cc2)n1)NO ?
Reply: true

Ask: Would you mind telling me which call this test gave CC(C)(C)OC(=O)N1CCc2c(sc3ncnc(N/N=C/c4ccccc4Br)c23)C1 ?
Reply: false

Ask: Would you mind telling me which call this test gave Cc1ccc(/C=C/C(=O)C(=O)/C=C/c2ccc(C)cc2)cc1 ?
Reply: false

Ask: Would you mind telling me which call this test gave COc1cc(-c2nn(-c3cccc(NC(=O)CCN4CCN(c5ccccc5)CC4)c3)cc2-c2ccncc2)ccc1Cl ?
Reply: false

###

system: CAKI-1 renal; assay: NCI-60 one-dose screen, 48 h (100 = growth as untreated, 0 = no growth, -100 = all killed); details: 10 µM
Compounds without any hit were thinned out: in the full panel of roughly 83,000, 20% have a hit.
Recorded measurements of growth, one per entry
Give the number; % is assumed, so skip it.

Observe how each entry below is paired with its result.
>>> df
                                   compound  assay_result
0       COc1ccc(/C=C2/SC(=S)NC2=O)c(OC)c1OC          64.3
1  COC(=O)C1OC1c1cc([N+](=O)[O-])ccc1OC (stereo unspecified)          83.2
2  Cc1c(O)c(=O)ccn1C1CCC(CC2CCC(n3ccc(=O)c(O)c3C)CC2)CC1 (stereo unspecified)          25.2
3  CCn1cc(CNc2ccc(C(=O)Nc3ccc4ccccc4c3)cc2)c(C)n1          53.6
4  C(=N\Nc1ncnc2sc3c(c12)CCNC3)/c1cccc2ccccc12            92

Kindly consider the entry below.
Ask: What does the record list as growth for O=[N+]([O-])c1ccc(NCSc2ccc(Cl)cc2)cc1 ?
Reply: 96.2
